target: Human KARS (Homo sapiens, UniProt Q15046); construct: Human KARS protein (residues 70-584) was expressed and purified; made in house; experiment: KARS AMP Transcreener FP assay; type: biochemical; settings: 50 nM human KARS, 20 μM ATP, 50 μM L-Lysine, 1 μM tRNA, 2 h at RT; read-out: Human KARS Transcreener AMP assay Qualified absolute AC50
Sequence (Q15046 70-584): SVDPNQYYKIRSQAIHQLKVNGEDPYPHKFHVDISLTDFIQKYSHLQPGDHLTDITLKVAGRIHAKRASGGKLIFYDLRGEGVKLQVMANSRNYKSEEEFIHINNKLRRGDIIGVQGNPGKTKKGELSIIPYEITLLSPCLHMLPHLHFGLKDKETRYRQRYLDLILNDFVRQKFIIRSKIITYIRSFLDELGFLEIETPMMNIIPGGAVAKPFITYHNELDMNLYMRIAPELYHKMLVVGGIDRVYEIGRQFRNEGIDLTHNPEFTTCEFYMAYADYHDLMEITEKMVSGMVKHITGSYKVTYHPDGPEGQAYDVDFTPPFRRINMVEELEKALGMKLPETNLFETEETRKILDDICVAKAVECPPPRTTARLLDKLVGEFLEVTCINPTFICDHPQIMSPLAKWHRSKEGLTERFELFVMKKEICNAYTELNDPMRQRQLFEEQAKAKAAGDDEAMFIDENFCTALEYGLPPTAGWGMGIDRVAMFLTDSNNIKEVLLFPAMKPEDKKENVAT
I'd be grateful if you could share measured AC50 for these entries.
Give bare numbers, in nM.

CS(=O)(=O)Nc1cc(CNC(=O)N2CCC3(CC2)CC(O)c2cc(F)ccc2N3)ccc1F (racemic) [Example 164]: 106

Each compound below has a recorded value; state its AC50.
1. NC(=O)c1cc(CNC(=O)N2CCC3(CC2)CC(O)c2cc(F)ccc2N3)ccc1F (racemic) [Example 160]
2. CN1c2ccc(F)cc2C(O)CC12CCN(C(=O)NCc1ccc(F)c(CC(N)=O)c1)CC2 (racemic) [Example 161]
3. O=C(NCc1ccc(F)cc1)N1CCC2(CC1)C[C@@H](O)c1cc(F)ccc1N2 (single isomer, unassigned) [Example 152]

1. 47.2
2. 71.8
3. 9.1

Entry CN1c2ccc(F)cc2[C@H](O)CC12CCN(C(=O)NCc1ccc(F)cc1)CC2 (single isomer, unassigned) [Example 151a] has what AC50?
9.1
